The measured values listed here are drawn from ChEMBL document CHEMBL3431459.

Experiment: SUPPLEMENTARY: PAMPA permeability assay
Type: physicochemical
Conditions: read-out: Permeability
# strict inequality: Papp < 2 ×10⁻⁶ cm/s yields Met, everything else yields Not met

These recorded examples may help you get a feel for the data.
compound=Cc1cc(-c2nc([C@H]3CCCCN3C(=O)COc3ccccc3)no2)no1 qualitative_label="Not met"
compound="COc1ccc(Cl)cc1S(=O)(=O)N1CC(C(=O)O)Oc2ccc(C(=O)Nc3ccccc3F)cc21 (centres undefined)" qualitative_label=Met
compound=O=C(COc1ccccc1)N1CCCC[C@@H]1c1nc(-c2ccc(-c3cnc[nH]3)cc2)no1 qualitative_label=Met
compound=COc1ccc(C)cc1S(=O)(=O)N1CCc2ccc(C(=O)Nc3ccc(CC(=O)O)cc3)cc21 qualitative_label="Not met"

Lab note: confirm whether the reported Papp for this compound is below 2 ×10⁻⁶ cm/s, equality not counting. compound: COc1ccc(Cl)cc1S(=O)(=O)N1CCc2c(C)cc(C(=O)Nc3ccc(CC(=O)O)cc3)cc21
Not met

Lab note: Papp threshold 2 ×10⁻⁶ cm/s. Does this compound come in strictly under it? CN1CCN(C(=O)COc2ccccc2)[C@@H](c2nc(-c3ccc4[nH]nnc4c3)no2)C1
Not met

Hi there! Is Papp for COc1ccc(Cl)cc1S(=O)(=O)N1COc2c(Cl)cc(C(=O)Nc3ccc(C(=O)O)cc3)cc21 below 2 ×10⁻⁶ cm/s, do you know?
Not met

Please let me know if COc1ccc(Cl)cc1S(=O)(=O)c1cn(CCO)c2ccc(C(=O)Nc3ccccc3)cc12 shows Papp below 2 ×10⁻⁶ cm/s.
Met

Regarding COc1ccc(Cl)cc1S(=O)(=O)Nc1cc(C(=O)Nc2ccccc2)ccc1CCC(=O)O , kindly confirm whether its Papp is beneath 2 ×10⁻⁶ cm/s.
Not met

Regarding COc1ccc(Cl)cc1S(=O)(=O)N1CCOc2c(F)cc(C(=O)Nc3nc(CC(=O)O)cs3)cc21 , kindly confirm whether its Papp is beneath 2 ×10⁻⁶ cm/s.
Not met

Find out if reported Papp for COc1ccc(Cl)cc1S(=O)(=O)N1CCOc2ccc(C(=O)Nc3ncc(CC(=O)O)s3)cc21 is less than 2 ×10⁻⁶ cm/s
Not met

Does the reported Papp of the following compound sit strictly below 2 ×10⁻⁶ cm/s? CCn1c(C)nc(Cl)c1-c1noc([C@H]2CCCCN2C(=O)COc2ccccc2)n1
Not met

Determine if COc1ccc(Cl)cc1S(=O)(=O)c1cn(CCC(=O)O)c2ccc(C(=O)Nc3ccccc3)cc12 shows Papp strictly lower than 2 ×10⁻⁶ cm/s.
Met

Determine if O=C(COc1ccccc1)N1CCCC[C@@H]1c1noc(C2(C(F)(F)F)CC2)n1 shows Papp strictly lower than 2 ×10⁻⁶ cm/s.
Not met

* * *

For each of the compounds below, state its pIC50.
Target: Carnitine O-palmitoyltransferase 1, liver isoform (Rattus norvegicus)
Sequence (P32198 whole entry): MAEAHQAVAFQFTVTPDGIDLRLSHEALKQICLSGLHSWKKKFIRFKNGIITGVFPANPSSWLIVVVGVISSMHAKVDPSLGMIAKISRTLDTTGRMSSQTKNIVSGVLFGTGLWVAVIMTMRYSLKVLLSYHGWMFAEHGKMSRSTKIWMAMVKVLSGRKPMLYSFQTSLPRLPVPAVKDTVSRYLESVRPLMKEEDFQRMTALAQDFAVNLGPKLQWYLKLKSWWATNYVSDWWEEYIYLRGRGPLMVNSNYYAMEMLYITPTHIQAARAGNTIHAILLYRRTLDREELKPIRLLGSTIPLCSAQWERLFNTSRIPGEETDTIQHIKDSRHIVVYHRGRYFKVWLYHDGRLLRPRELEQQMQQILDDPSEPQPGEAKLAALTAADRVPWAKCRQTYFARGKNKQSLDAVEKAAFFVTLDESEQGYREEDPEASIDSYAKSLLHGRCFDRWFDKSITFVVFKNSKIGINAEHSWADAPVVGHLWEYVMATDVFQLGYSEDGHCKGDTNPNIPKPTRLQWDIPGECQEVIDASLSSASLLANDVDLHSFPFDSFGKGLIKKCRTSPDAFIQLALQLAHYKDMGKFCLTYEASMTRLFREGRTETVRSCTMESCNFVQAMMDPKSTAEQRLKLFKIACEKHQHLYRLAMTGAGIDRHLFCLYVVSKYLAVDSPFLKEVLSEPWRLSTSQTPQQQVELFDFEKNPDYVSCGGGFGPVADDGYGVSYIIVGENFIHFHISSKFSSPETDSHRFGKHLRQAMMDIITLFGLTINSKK
Experiment: SUPPLEMENTARY: Inhibition of Carnitine palmitoyltransferase 1, liver isoform
Give bare numbers, as −log10 of the molar value.

compound=COc1ccc(Cl)cc1CN1C(=O)OC(C)(C)c2ccc(C(=O)Nc3ccc(CC(=O)O)cc3)cc21 assay_target="Carnitine O-palmitoyltransferase 1, liver isoform (Rattus norvegicus)" reported=7.38
compound=Cc1cc(C)cc(S(=O)(=O)N2CCS(=O)(=O)c3ccc(C(=O)Nc4ccc(C(=O)O)cc4)cc32)c1 assay_target="Carnitine O-palmitoyltransferase 1, liver isoform (Rattus norvegicus)" reported=7.74
compound="O=C(COc1ccccc1)N1CCNCC1c1nc(-c2ccc(N3CCOCC3)cc2)no1 (stereo not given)" assay_target="Carnitine O-palmitoyltransferase 1, liver isoform (Rattus norvegicus)" reported=6.31

Switching to the query record.
compound COc1ccc(Cl)cc1S(=O)(=O)N(c1cc(C(=O)Nc2nc(CC(=O)O)cs2)cc2c1OCO2)C(C)C , pIC50 observed: 6.73
